# Assay Info: NCI Yeast Anticancer Drug Screen. Data for the wt2 strain (AID 169);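 note: 0% = growth of vehicle-treated yeast cultures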
# Assay Context: S. cerevisiae wt2 strain growth inhibition; at 1.2 µM; active compounds read high
The panel holds about 79,000 compounds, 15% with a hit somewhere; the sample as a whole holds those more often.
We begin with a simple list: items and their reported growth inhibition.
# value in %; strip the unit string

Example entries and their recorded answers appear below.
Sure, the documented growth inhibition for Cc1ccc(Nc2n[nH]c(=S)s2)cc1C is -33

Sure, the documented growth inhibition for O=C1OC(/C=C/c2ccccc2)Sc2ccccc21 (centres undefined) is -2

Sure, the documented growth inhibition for Cc1ccc(S(=O)(=O)N/N=C/c2c(O)ccc3ccccc23)cc1 is -5

Sure, the documented growth inhibition for CC(C)(C)[Si](C)(C)OCC1OC(n2cnc3c(N)ncnc32)C2OC(=S)OC12 (centres undefined) is -1

Sure, the documented growth inhibition for CC1C=CN(N(C)C)C2=C1C(=O)c1cnccc1C2=O (centres undefined) is 5

Continuing:
Sure, the documented growth inhibition for OC(c1ccc(Br)cc1)(c1cccs1)C1CC1 (centres undefined) is -12

Sure, the documented growth inhibition for COc1ccc(/C=C2\CCc3ccccc3C2=O)cc1OC is -38

Sure, the documented growth inhibition for C[Si](C)(C)Cc1ccccc1C(=O)O is -1

Sure, the documented growth inhibition for O=C(O)NCC1CCCCC1 (tested in a mixture with another compound) is -2
